Tested target: T1, HMMW micropeptide (recombinant, purified from Escherichia coli BL21) (human)
T1 construct: also called purified HMMW micropeptide; human HMMW micropeptide
T1 peptide: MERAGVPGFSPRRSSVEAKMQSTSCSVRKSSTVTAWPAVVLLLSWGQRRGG
Experimental protocol: indirect ELISA, HMMW micropeptide coated at 1 ug/ml, antibody dilution 1:12.5K
Measured ELISA reading at antibody dilution 1:12.5K by item
Response field accepts a number only; no unit should be typed.

Using the record for Anti-HMMW antibody-1 (antibody, V domains shown, Mouse monoclonal antibody from a BALB/c x SP2/0 hybridoma; also called anti-HMMW-1 antibody) VH: EVKLEESGGGLVQPGGSMKFSCVASGFTFSNYWMNWVRQSPERGLEWVAEIKLKSNNYATLYAESVKGRFTISRDDSKSSVYLQVNNLRAEDTGIYYCITEIFDYWGQGTTLTVSS VL: QAVVTQESALTTSPGETVTLTCRSSTGAVTTSNYATWVQEKPDHLFTGLIVGANNRAPGVPARFSGSLIGDKAALTITGAQTEDEAIYFCALWFLNHWVFGGGTKLTVLG , report its ELISA reading at antibody dilution 1:12.5K.
2.38

Using the record for Anti-HMMW antibody-3 (antibody, V domains shown, Mouse monoclonal antibody from a BALB/c x SP2/0 hybridoma; also called anti-HMMW-3 antibody) VH: EVKLEESGGGLVQPGGSMKLSCVASGFTFSDYWMNWVRQSPEKGLEWLTEIRLKSDNYATHYAESVKGKFTISRDDSKSTVYLQMNNLRAEDTGIYYCSVETMDFWGQGTSVTVSS VL: QAVVTQESALTTSPGETVTLTCRSSIGAVTTNNYANWVQEKPDRLFTGLIRGTNNRVPGVPARFSGSLIGDKAALTITGAQTEDEAIYFCALWYSNHWVFGGGTKLTVL , report its ELISA reading at antibody dilution 1:12.5K.
3.22

New cases:
Using the record for Anti-HMMW antibody-4 (antibody, V domains shown, Mouse monoclonal antibody from a BALB/c x SP2/0 hybridoma; also called anti-HMMW-4 antibody) VH: EVKLEESGGGLVQPGGSMKLSCVASGFTFSDYWMNWVRQSPEKGLEWLTEIRLKSNNYLTHYAESVKGRFTISRDDSKSSVYLQMNNLRAEDTGIYYCSVETMDYWGQGISVTVSS VL: QAVVTQESALTTSSGETVTLTCRSSTGAVTTSNYANWVQEKPDHLFTGLIRGTNNRAPGVPARFSGSLIGDKAALTITGAQTEDEAIYFCALWYSNHWVFGGGTKLTVL , report its ELISA reading at antibody dilution 1:12.5K.
3.35
